Target: T1, his-tagged human CDH6 extracellular region protein (hCDH6 ECD-his) (human, UniProt P55285 19-615)
T1 construct: also called Human CDH6-his; hCDH6-his; not shown: his tag
T1 sequence: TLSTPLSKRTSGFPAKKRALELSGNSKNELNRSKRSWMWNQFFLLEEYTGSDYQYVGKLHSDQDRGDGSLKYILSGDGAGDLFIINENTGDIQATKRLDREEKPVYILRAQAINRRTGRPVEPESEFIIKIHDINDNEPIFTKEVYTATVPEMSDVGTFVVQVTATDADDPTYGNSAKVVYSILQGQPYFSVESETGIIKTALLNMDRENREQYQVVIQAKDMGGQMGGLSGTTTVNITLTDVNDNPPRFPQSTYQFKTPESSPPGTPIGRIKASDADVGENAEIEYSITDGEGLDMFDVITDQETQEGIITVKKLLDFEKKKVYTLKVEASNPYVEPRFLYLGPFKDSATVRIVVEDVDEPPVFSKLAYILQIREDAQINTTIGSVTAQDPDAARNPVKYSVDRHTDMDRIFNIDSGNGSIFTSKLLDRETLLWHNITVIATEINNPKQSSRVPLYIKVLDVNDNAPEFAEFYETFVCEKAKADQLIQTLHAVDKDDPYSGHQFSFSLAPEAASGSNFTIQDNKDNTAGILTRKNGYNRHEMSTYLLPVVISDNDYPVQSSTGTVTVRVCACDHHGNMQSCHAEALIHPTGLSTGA
Test: ELISA, coated antigen
quantityKind: pEC50
Friendly reminder that pEC50 comes from taking -log10 of the concentration in mol/L.

hCDH6-14-H2L3 (antibody, V domains shown, Humanized) VH: EIQLVQSGAEVKKPGASVKVSCKASGYTFTDNYINWVRQAPGQRLEWMGWIYPGTGNSYYNEKFKGRVTITVDTSASTAYMELSSLRSEDTAVYYCASSYGDSFDYWGQGTTVTVSS VL: DIVMTQSPDSLAVSLGERATINCRASQDIRNYLNWYQQKPGQTPKLLISYTSRLHSGVPDRFSGSGSGTDFTLTISSLQAEDVAVYYCQQYSQLPWTFGGGTKVEIK = 10.05

Quick one: pEC50 for hCDH6-14-H4L1 (antibody, V domains shown, Humanized) VH: EVQLVQSGAEVKKPGASVKVSCKASGYTFTDNYINWVRQAPGQGLEWMGWIYPGTGNSYYNEKFKGRVTITVDTSASTAYMELSSLRSEDTAVYYCASSYGDSFDYWGQGTTVTVSS VL: DIQMTQSPSSLSASVGDRVTITCRASQDIRNYLNWYQQKPGKAFKLLISYTSRLHSGVPSRFSGSGSGTDFTFTISSLQPEDIATYYCQQYSQLPWTFGGGTKVEIK ? 10.28
